Biological target: M4 muscarinic receptor (Homo sapiens, UniProt P08173)
Construct: expressed in transfected cells; host or cells: CHO (M4-CHO)
Assay: Functional mobilization of intracellular calcium (FLIPR) in M4-CHO cells
Assay type: cell-based
Settings: M4 receptor, calcium mobilization; read-out: M4 Efficacy
test.readout: Emax

// worked examples, Emax included
molecule="CCOC(=O)N1CCC(N2CCC3(CC2)CN(C(C)=O)c2ccc(-c4ccccc4C)cc23)CC1 [compound 78]" test_readout=Emax result_value="< 65%"
molecule="COCCOC(=O)N1C2CCC1CC(N1CCC3(CCc4ccccc43)CC1)C2 (stereo not drawn) [compound 95]" test_readout=Emax result_value="< 65%"
molecule="O=C(O[C@@H]1CCOC1)N1C2CCC1CC(N1CCC3(CC1)C(=O)Nc1ccccc13)C2 (stereo partly drawn) [compound 336]" test_readout=Emax result_value="< 65%"
molecule="CCOC(=O)N1CCC(N2CCC3(CC2)CN(C(=O)c2ccc(F)cc2)c2ccc(F)cc23)CC1 [compound 77]" test_readout=Emax result_value="< 65%"

Report Emax for each item below.
1. CC(C)OC(=O)N1CCC(N2CCC3(CC2)CN(C(=O)N(C)C)c2ccc(F)cc23)CC1 [compound 54]
2. CC(=O)NC1CC2(CCN(C[C@H]3C[C@H]4C=C[C@H]3C4)CC2)c2ccccc21 (stereo partly drawn) [compound 213]
3. CCOC(=O)N1C2CCC1CC(N1CCC3(CC1)CNc1ccc(C)cc13)C2 (stereo not drawn) [compound 109]
4. CC(=O)N[C@H]1CC2(CCN(C3CCOCC3)CC2)c2ccccc21 [compound 206]
5. CC(C)OC(=O)N1C2CCC1CC(N1CCC3(CC1)COc1ccc(F)cc13)C2 (stereo not drawn) [compound 320]

Reply |
65 to 85%
< 65%
< 65%
< 65%
< 65%

Report Emax for each item below.
1. CCOC(=O)N1C2CCC1CC(N1CCC3(CC1)CC(=O)Nc1ccccc13)C2 (stereo not drawn) [compound 56]
2. O=C(OC1CCCC1)N1C2CCC1CC(N1CCC3(CC1)COc1ccc(F)cc13)C2 (stereo not drawn) [compound 133]
3. CCOC(=O)N1CCC(CN2CCC3(CC2)CN(C(C)=O)c2c(F)cccc23)CC1 [compound 307]
4. CCCNC(=O)N1C2CCC1CC(N1CCC3(CC1)COc1ccc(F)cc13)C2 (stereo not drawn) [compound 231]

Reply |
["65 to 85%", "65 to 85%", "< 65%", "> 85%"]

* * *

Molecular target: M1 muscarinic receptor (Homo sapiens)
Construct: expressed in transfected cells; host or cells: CHO (M1-CHO)
Assay: Functional mobilization of intracellular calcium (FLIPR) in M1-CHO cells
Format: cell-based
Settings: M1 receptor, calcium mobilization; read-out: M1 Efficacy
Protocol: Functional Mobilization of Intracellular Calcium to Determine Muscarinic Receptor Activity: […] Compounds are prepared at a 2× fold concentration in a 96-well plate (round bottom, Costar Corning cat# 3656), by reconstituting the pre-spotted compounds in bath 1 containing 1 mM probenecid. […] In both assay modes, the fluorescence is recorded for 60 sec (excitation wavelength is […] and emission wavelength 540 nm) using the FLIPR 3 instrument. […]
I'd be grateful if you could share measured Emax for these entries.

// worked examples, Emax included
compound="CCOC(=O)N1C2CCC1CC(N1CCC3(CC1)CNc1ccccc13)C2 (centres unmarked)" test_readout=Emax result_value="> 85%"
compound=CCOC(=O)N1CCC(N2CCC3(CC2)CN(C(=O)c2cccc(OC)c2)c2ccc(F)cc23)CC1 test_readout=Emax result_value="> 85%"
compound="COC(=O)N1CCCC(N2CCC3(CC2)CN(C(C)=O)c2ccc(F)cc23)CC1 (centres unmarked)" test_readout=Emax result_value="> 85%"
compound=CC(=O)N1CC2(CCN(C3CCCCCCC3)CC2)c2cc(F)ccc21 test_readout=Emax result_value="65 to 85%"
compound="Cc1ccc2c(c1)C1(CCN(C3CC4CCC3C4)CC1)CN2C(=O)OC(C)(C)C (centres unmarked)" test_readout=Emax result_value="65 to 85%"

Report Emax for each item below.
1. Clc1ccc2c(c1)C1(CCO2)CCN([C@@H]2C[C@@H]3CC[C@H]2C3)CC1
2. CCOC(=O)N1CCC(N2CCC3(CC2)CN(C(=O)N(C)C)c2ccc(F)cc23)CC1
3. C#CCOC(=O)N1CCC(N2CCC3(CC2)CN(C(C)=O)c2ccc(C)cc23)CC1

Reply |
> 85%
65 to 85%
< 65%

* * *

I'd be grateful if you could share measured Emax for these entries.
Target: M1 muscarinic receptor (Homo sapiens, UniProt P11229)
Construct: expressed in transfected cells; host or cells: CHO (M1-CHO)
Sequence (P11229 whole entry): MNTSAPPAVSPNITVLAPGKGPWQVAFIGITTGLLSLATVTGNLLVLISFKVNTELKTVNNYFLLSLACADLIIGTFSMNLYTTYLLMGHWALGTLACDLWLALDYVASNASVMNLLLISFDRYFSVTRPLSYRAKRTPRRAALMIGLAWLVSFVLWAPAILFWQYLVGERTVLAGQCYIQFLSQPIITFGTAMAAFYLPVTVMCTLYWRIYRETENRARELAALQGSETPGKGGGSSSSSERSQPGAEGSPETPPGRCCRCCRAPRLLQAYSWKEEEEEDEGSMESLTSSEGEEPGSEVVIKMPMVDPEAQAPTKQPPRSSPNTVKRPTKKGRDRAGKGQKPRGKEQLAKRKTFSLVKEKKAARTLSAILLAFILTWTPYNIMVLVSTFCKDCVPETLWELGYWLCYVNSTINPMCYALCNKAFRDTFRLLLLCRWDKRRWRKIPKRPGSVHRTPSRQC
Experiment: Functional mobilization of intracellular calcium (FLIPR) in M1-CHO cells
Format: cell-based
Conditions: M1 receptor, calcium mobilization; read-out: M1 Efficacy

molecule=CN([C@H]1CC2(CCN(C[C@H]3C[C@H]4CC[C@H]3C4)CC2)c2ccccc21)S(C)(=O)=O tested_on="M1 muscarinic receptor (Homo sapiens, UniProt P11229)" result_value="< 65%"
molecule="O=C(OC1CCC1)N1C2CCC1CC(N1CCC3(CCc4ccccc43)CC1)C2 (centres unmarked)" tested_on="M1 muscarinic receptor (Homo sapiens, UniProt P11229)" result_value="< 65%"
molecule=c1ccc2c(c1)CCC21CCN(CC2CCOCC2)CC1 tested_on="M1 muscarinic receptor (Homo sapiens, UniProt P11229)" result_value="< 65%"
molecule=CC#CCOC(=O)N1CC2(CCN(C3CCN(C(=O)OCC)CC3)CC2)c2cc(F)ccc21 tested_on="M1 muscarinic receptor (Homo sapiens, UniProt P11229)" result_value="< 65%"
molecule="CCOC(=O)N1C2CCC1CC(N1CCC3(CC1)CN(C(=O)Nc1ccc(F)cc1)c1ccc(F)cc13)C2 (centres unmarked)" tested_on="M1 muscarinic receptor (Homo sapiens, UniProt P11229)" result_value="< 65%"

Report Emax for each item below.
1. CCCOC(=O)N1C2CCC1CC(N1CCC3(CC1)CN(C(=O)OC1CCC1)c1ccc(F)cc13)C2 (centres unmarked)
2. Cc1ccc2c(c1)C1(CCN(CC3CC4C=CC3C4)CC1)CN2 (centres unmarked)
3. O=C(O[C@@H]1CCOC1)N1C2CCC1CC(N1CCC3(CC1)C(=O)Nc1ccccc13)C2 (some centres unmarked)

Reply |
1. 65 to 85%
2. 65 to 85%
3. < 65%

* * *

Target: M4 muscarinic receptor (Homo sapiens, UniProt P08173)
Construct: expressed in transfected cells; host or cells: CHO (M4-CHO)
Sequence (P08173 1-479): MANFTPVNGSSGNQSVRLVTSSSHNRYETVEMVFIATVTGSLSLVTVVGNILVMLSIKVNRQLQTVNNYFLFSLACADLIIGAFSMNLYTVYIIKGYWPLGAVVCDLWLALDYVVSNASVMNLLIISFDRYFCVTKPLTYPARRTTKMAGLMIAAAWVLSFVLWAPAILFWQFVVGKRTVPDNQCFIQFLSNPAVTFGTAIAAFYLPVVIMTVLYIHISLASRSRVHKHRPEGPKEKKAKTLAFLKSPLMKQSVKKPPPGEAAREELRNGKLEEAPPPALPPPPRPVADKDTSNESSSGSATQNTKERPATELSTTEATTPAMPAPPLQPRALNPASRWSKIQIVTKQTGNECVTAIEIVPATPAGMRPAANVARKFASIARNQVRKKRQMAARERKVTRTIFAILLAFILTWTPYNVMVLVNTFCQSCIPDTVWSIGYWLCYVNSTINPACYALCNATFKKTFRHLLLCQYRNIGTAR
Assay: Functional mobilization of intracellular calcium (FLIPR) in M4-CHO cells
Assay type: cell-based
Settings: M4 receptor, calcium mobilization; read-out: M4 Efficacy
Method: Functional Mobilization of Intracellular Calcium to Determine Muscarinic Receptor Activity: […] Compounds are prepared at a 2× fold concentration in a 96-well plate (round bottom, Costar Corning cat# 3656), by reconstituting the pre-spotted compounds in bath 1 containing 1 mM probenecid. […] In both assay modes, the fluorescence is recorded for 60 sec (excitation wavelength is […] and emission wavelength 540 nm) using the FLIPR 3 instrument. […]
I'd be grateful if you could share measured Emax for these entries.

// worked examples, Emax included
molecule=CCOC(=O)N1CCC(N2CCC3(CC2)CN(C(=O)N(C)c2ccccc2)c2ccc(F)cc23)CC1 test_readout=Emax result_value="> 85%"
molecule="COCCOC(=O)N1CCCC(N2CCC3(CC2)CN(C(C)=O)c2ccc(F)cc23)CC1 (centres unmarked)" test_readout=Emax result_value="< 65%"
molecule=CCOC(=O)N1CCC(N2CCC3(CC2)CN(C(=O)c2ccno2)c2ccc(F)cc23)CC1 test_readout=Emax result_value="65 to 85%"
molecule="COCCOC(=O)N1CC2(CCN(C3CC4CCC(C3)N4C(=O)OCCOC)CC2)c2cc(F)ccc21 (centres unmarked)" test_readout=Emax result_value="< 65%"
molecule=CCOC(=O)N1CCC(N2CCC3(CC2)CN(C(C)=O)c2ccc(CC)cc23)CC1 test_readout=Emax result_value="> 85%"

Report Emax for each item below.
1. Fc1ccc2c(c1)C1(CCN(C[C@H]3C[C@H]4CC[C@H]3O4)CC1)CN2
2. C#CCCOC(=O)N1C2CCC1CC(N1CCC3(CC1)CN(C(=O)N(C)C)c1ccc(F)cc13)C2 (centres unmarked)
3. COCCOC(=O)N1C2CCC1CC(N1CCC3(CC1)CN(C(=O)OC1CCC1)c1ccc(F)cc13)C2 (centres unmarked)

Reply |
1: < 65%; 2: > 85%; 3: < 65%
